Method notes: Half-life in Sprague-Dawley rat at 1 mg/kg, iv measured for 24 hrs by LC/MS analysis
Format: ADME, organism-based
Run parameters: in vivo
Measured endpoint: half-life (h)

Substance smiles	Measured endpoint	Unit annotation	Endpoint result
COCCN(C)Cc1c(-c2ccc(NC(=O)NOC)cc2)sc2c1c(=O)n(-c1ccc(OC)nn1)c(=O)n2Cc1c(F)cccc1F	half-life	h	2.6
CONC(=O)Nc1ccc(-c2sc3c(c2CN(C)C)c(=O)n(-c2ccc(OC)nn2)c(=O)n3Cc2c(F)cccc2F)cc1	half-life	h	3.64
CONC(=O)Nc1ccc(-c2sc3c(c2CN(C)CCOC(F)(F)F)c(=O)n(-c2ccc(OC)nn2)c(=O)n3Cc2c(F)cccc2F)cc1	half-life	h	2.79

---

Method notes: Intrinsic clearance in human liver microsomes incubated for 15 mins in presence of NADPH by LC-MS analysis
Format: ADME, Microsome
Run parameters: read-out: CLH
Item-by-item account of CLint scaled at […]

Solved entries (count: 3):
Substance smiles	CLint scaled at […]
CONC(=O)Nc1ccc(-c2sc3c(c2CN(C)C)c(=O)n(-c2ccc(OC(F)F)nn2)c(=O)n3Cc2c(F)cccc2F)cc1	< 6.75 mL/min/kg
COc1ccc(-n2c(=O)c3c(CN(C)C)c(-c4ccc(NC(=O)NOCC(F)F)cc4)sc3n(Cc3c(F)cccc3F)c2=O)nn1	7.38 mL/min/kg
COCCN(C)Cc1c(-c2ccc(NC(=O)NOC)cc2)sc2c1c(=O)n(-c1ccc(OC)nn1)c(=O)n2Cc1c(F)cccc1F	< 6.75 mL/min/kg

Data request, read-out CLint scaled at […], for CNc1ccc(-n2c(=O)c3c(CN(C)C)c(-c4ccc(NC(=O)NOC)cc4)sc3n(Cc3c(F)cccc3F)c2=O)nn1
< 6.75 mL/min/kg

---

Method notes: Tmax in Sprague-Dawley rat at 12 mg/kg, po measured for 24 hrs by LC/MS analysis
Assay type: ADME, organism-based
Run parameters: in vivo
Measured endpoint: Tmax (min)

a: CONC(=O)Nc1ccc(-c2sc3c(c2CN(C)CCOC(F)(F)F)c(=O)n(-c2ccc(OC)nn2)c(=O)n3Cc2c(F)cccc2F)cc1
b: COCCN(C)Cc1c(-c2ccc(NC(=O)NOC)cc2)sc2c1c(=O)n(-c1ccc(OC)nn1)c(=O)n2Cc1c(F)cccc1F
Among a and b , which shows a numerically higher Tmax result? Choose, then provide that item's label.
a

---

Method notes: Cmax in Sprague-Dawley rat at 1 mg/kg, iv measured for 24 hrs by LC/MS analysis
Assay type: ADME, organism-based
Parameters: time 24 hrs, dose 1 mg/kg, route iv
Run parameters: in vivo
Measured endpoint: Cmax (nM)

P: CONC(=O)Nc1ccc(-c2sc3c(c2CN(C)C)c(=O)n(-c2ccc(OC)nn2)c(=O)n3Cc2c(F)cccc2F)cc1
Q: CONC(=O)Nc1ccc(-c2sc3c(c2CN(C)CCOC(F)(F)F)c(=O)n(-c2ccc(OC)nn2)c(=O)n3Cc2c(F)cccc2F)cc1
R: COCCN(C)Cc1c(-c2ccc(NC(=O)NOC)cc2)sc2c1c(=O)n(-c1ccc(OC)nn1)c(=O)n2Cc1c(F)cccc1F
I would appreciate it if you could sort these 3 compounds by Cmax, starting from the smallest number. # answer = labels listed in requested order
P, R, Q

---

Method notes: Half-life in Sprague-Dawley rat at 12 mg/kg, po measured for 24 hrs by LC/MS analysis
Format: ADME, organism-based
Run parameters: in vivo
Measured endpoint: half-life (h)

Compound	Measured endpoint	Endpoint result
CONC(=O)Nc1ccc(-c2sc3c(c2CN(C)C)c(=O)n(-c2ccc(OC)nn2)c(=O)n3Cc2c(F)cccc2F)cc1 [RELUGOLIX]	half-life	3.88
COCCN(C)Cc1c(-c2ccc(NC(=O)NOC)cc2)sc2c1c(=O)n(-c1ccc(OC)nn1)c(=O)n2Cc1c(F)cccc1F	half-life	4.33
CONC(=O)Nc1ccc(-c2sc3c(c2CN(C)CCOC(F)(F)F)c(=O)n(-c2ccc(OC)nn2)c(=O)n3Cc2c(F)cccc2F)cc1	half-life	4.86

---

Method notes: AUC(last) in Sprague-Dawley rat at 1 mg/kg, iv measured for 24 hrs by LC/MS analysis
Assay type: ADME, organism-based
Set-up: dose 1 mg/kg, time 24 hrs, route iv
Run parameters: in vivo
Measured endpoint: AUC(0-t) at 24 h (µM·h)

Substance smiles	AUC(0-t) at 24 h / µM·h
COCCN(C)Cc1c(-c2ccc(NC(=O)NOC)cc2)sc2c1c(=O)n(-c1ccc(OC)nn1)c(=O)n2Cc1c(F)cccc1F	0.689

1: CONC(=O)Nc1ccc(-c2sc3c(c2CN(C)CCOC(F)(F)F)c(=O)n(-c2ccc(OC)nn2)c(=O)n3Cc2c(F)cccc2F)cc1
2: CONC(=O)Nc1ccc(-c2sc3c(c2CN(C)C)c(=O)n(-c2ccc(OC)nn2)c(=O)n3Cc2c(F)cccc2F)cc1
// pick min by AUC(0-t) at 24 h: 1 , 2 Please reply using the label of the selected record.
2
(2: 0.34 µM·h, 1: 1.37 µM·h)

---

Method notes: Cmax in Sprague-Dawley rat at 12 mg/kg, po measured for 24 hrs by LC/MS analysis
Type: ADME, organism-based
Parameters: dose 12 mg/kg, time 24 hrs, route po
Run parameters: in vivo
Measured endpoint: Cmax (nM)

Molecule	Unit annotation	Cmax
COCCN(C)Cc1c(-c2ccc(NC(=O)NOC)cc2)sc2c1c(=O)n(-c1ccc(OC)nn1)c(=O)n2Cc1c(F)cccc1F	nM	329

1: CONC(=O)Nc1ccc(-c2sc3c(c2CN(C)C)c(=O)n(-c2ccc(OC)nn2)c(=O)n3Cc2c(F)cccc2F)cc1 [RELUGOLIX]
2: CONC(=O)Nc1ccc(-c2sc3c(c2CN(C)CCOC(F)(F)F)c(=O)n(-c2ccc(OC)nn2)c(=O)n3Cc2c(F)cccc2F)cc1
I'd appreciate it if you could identify which of 1 and 2 has the greater Cmax. // return label of chosen record
2
(2: 920 nM, 1: 35.3 nM)

---

Method notes: Intrinsic clearance in human liver microsomes incubated for 15 mins in presence of NADPH by LC-MS analysis
Format: ADME, Microsome
Run parameters: read-out: CLH
Measured endpoint: CLint scaled at […] (mL/min/kg)

Substance smiles	CLint scaled at […] / mL/min/kg
CONC(=O)Nc1ccc(-c2sc3c(c2CN(C)CCOC(F)(F)F)c(=O)n(-c2ccc(OC)nn2)c(=O)n3Cc2c(F)cccc2F)cc1	14.2

P: CCc1ccc(-n2c(=O)c3c(CN(C)C)c(-c4ccc(NC(=O)NOC)cc4)sc3n(Cc3c(F)cccc3F)c2=O)nn1
Q: CONC(=O)Nc1ccc(-c2sc3c(c2CN(C)C)c(=O)n(-c2ccc(OC)nn2)c(=O)n3Cc2c(F)cccc2F)cc1
R: CONC(=O)Nc1ccc(-c2sc3c(c2CN(C)C)c(=O)n(-c2cccc(OC)c2F)c(=O)n3Cc2c(F)cccc2F)cc1
Which order do these items take when sorted by rising CLint scaled at […]? List them. Please write the labels in the order that was asked for.
Q, P, R
(Q: 5.22 mL/min/kg, P: 17.6 mL/min/kg, R: 52 mL/min/kg)

---

Method notes: Apparent permeability across apical to basolateral side in human Caco-2 cells incubated for 180 mins by LC/MS/MS analysis
Assay type: ADME, cell-based
Run parameters: Caco-2
Measured endpoint: Papp A→B at 3 h (×10⁻⁶ cm/s)

I: COc1ccc(-n2c(=O)c3c(CN(C)C)c(-c4ccc(NC(=O)NOCC(F)F)cc4)sc3n(Cc3c(F)cccc3F)c2=O)nn1
II: CONC(=O)Nc1ccc(-c2sc3c(c2CN(C)C)c(=O)n(-c2cccc(OC)c2F)c(=O)n3Cc2c(F)cccc2F)cc1
Could you point out whether the larger Papp A→B at 3 h belongs to I or to II ? In your reply, give the label of the chosen option.
II
(II: 0.051 ×10⁻⁶ cm/s, I: 0.01 ×10⁻⁶ cm/s)

---

Method notes: Apparent permeability across basolateral to apical side in human Caco-2 cells incubated for 180 mins by LC/MS/MS analysis
Type: ADME, cell-based
Run parameters: Caco-2
Measured endpoint: Papp B→A at 3 h (×10⁻⁶ cm/s)

Completed entries (count: 2):
Substance smiles	Papp B→A at 3 h (×10⁻⁶ cm/s)
COc1ccc(-n2c(=O)c3c(CN(C)C)c(-c4ccc(NC(=O)NOCC(F)(F)F)cc4)sc3n(Cc3c(F)cccc3F)c2=O)nn1	17.2
CONC(=O)Nc1ccc(-c2sc3c(c2CN(C)C)c(=O)n(-c2cccc(OC)c2F)c(=O)n3Cc2c(F)cccc2F)cc1	21.1

P: CCc1ccc(-n2c(=O)c3c(CN(C)C)c(-c4ccc(NC(=O)NOC)cc4)sc3n(Cc3c(F)cccc3F)c2=O)nn1
Q: COc1ccc(-n2c(=O)c3c(CN(C)C)c(-c4ccc(NC(=O)NOCC(F)F)cc4)sc3n(Cc3c(F)cccc3F)c2=O)nn1
R: COCCN(C)Cc1c(-c2ccc(NC(=O)NOC)cc2)sc2c1c(=O)n(-c1ccc(OC)nn1)c(=O)n2Cc1c(F)cccc1F
Please list these compounds in decreasing order of Papp B→A at 3 h. Please list each label once, in the requested order.
R, Q, P
(R: 42.2 ×10⁻⁶ cm/s, Q: 15.7 ×10⁻⁶ cm/s, P: 10.2 ×10⁻⁶ cm/s)
